FYI, the data here is from PubChem BioAssay AID540349.

- STUDY_TARGET: Sphingosine 1-phosphate receptor 3 (Homo sapiens)
- MEASUREMENT_PROTOCOL: S1P3 receptor agonists, SAR follow-up, cell-based, fluorescence, synthesized compounds (AID 540349); call rule not given here
- CONDITION_NOTES: S1P3-expressing cells, agonist fluorescence read-out; run 3
Outcome field: choose from active, inactive

Here are 3 compounds together with their reported answers.
CC1CCCCC1N(C(=O)c1cc(C2CC2)on1)C1CCCCC1 (centres undefined); active
CC1CCCCC1N(C(=O)c1cc(C2CC2)on1)C1CCCCCC1 (centres undefined); active
CCCc1cc(C(=O)N(C2CCCCC2)C2CCCCC2)no1; active

Call for entry CC1CCCCC1N(C(=O)c1cc(C2CC2)on1)C1CCCC1 (centres undefined) :
active

And then CC1CCCCC1N(C(=O)c1cc(C2CC2)on1)C1CCOCC1 (centres undefined) , what is it?
active

And then O=C(c1cc(C2CC2)on1)N(C1CCCCCC1)C1CCCC1 , what is it?
active

And then COc1ccc(-c2cc(C(=O)N(C3CCCCC3)C3CCCCC3)no2)cc1 , what is it?
active

* * *

- STUDY_TARGET: Sphingosine 1-phosphate receptor 3 (Homo sapiens)
- MEASUREMENT_PROTOCOL: S1P3 receptor agonists, SAR follow-up, cell-based, fluorescence, synthesized compounds (AID 540349)
- CONDITION_NOTES: S1P3-expressing cells, agonist fluorescence read-out; run 1
Calls of active or inactive are those of the source. The rule behind the calls is not given here.
Outcome field: choose from t = active, f = inactive

Call for entry CCN(CC)C(=O)c1cc(C2CC2)on1 :
f

And then COc1ccc(N(Cc2ccccc2)C(=O)c2cc(C3CC3)on2)cc1 , what is it?
f

And then CCCc1cc(C(=O)NC2CCCCC2)no1 , what is it?
f

And then O=C(c1cc(C2CC2)on1)N(Cc1ccccc1)Cc1ccccc1 , what is it?
f

And then CC(C)c1cc(C(=O)N(C2CCCCC2)C2CCCCC2)no1 , what is it?
t

And then CCCc1cc(C(=O)N(C2CCCCC2)C2CCCC2)no1 , what is it?
f

* * *

- STUDY_TARGET: Sphingosine 1-phosphate receptor 3 (Homo sapiens)
- MEASUREMENT_PROTOCOL: S1P3 receptor agonists, SAR follow-up, cell-based, fluorescence, synthesized compounds (AID 540349)
- CONDITION_NOTES: S1P3-expressing cells, agonist fluorescence read-out; run 2
Activity calls are given as the source filed them. The rule behind the calls is not given here.
Outcome field: choose from active, inactive

Here are 3 compounds together with their reported answers.
CC1CCCCC1N(C(=O)c1cc(C2CC2)on1)C1CCCCC1 (centres undefined); active
O=C(c1cc(C2CC2)on1)N(C1CCCCC1)C1CCCC1; active
O=C(c1cc(C2CC2)on1)N(C1CCCCC1)C1CCCCC1; active

Call for entry CCOc1ccc(-c2nc(C(=O)N(C3CCCCC3)C3CCCCC3)co2)cc1OCC :
active

And then O=C(c1coc(C2CC2)n1)N(C1CCCCC1)C1CCCCC1 , what is it?
inactive

* * *

- STUDY_TARGET: UniProt:Q99500
- Sequence (Q99500 whole entry, looked up): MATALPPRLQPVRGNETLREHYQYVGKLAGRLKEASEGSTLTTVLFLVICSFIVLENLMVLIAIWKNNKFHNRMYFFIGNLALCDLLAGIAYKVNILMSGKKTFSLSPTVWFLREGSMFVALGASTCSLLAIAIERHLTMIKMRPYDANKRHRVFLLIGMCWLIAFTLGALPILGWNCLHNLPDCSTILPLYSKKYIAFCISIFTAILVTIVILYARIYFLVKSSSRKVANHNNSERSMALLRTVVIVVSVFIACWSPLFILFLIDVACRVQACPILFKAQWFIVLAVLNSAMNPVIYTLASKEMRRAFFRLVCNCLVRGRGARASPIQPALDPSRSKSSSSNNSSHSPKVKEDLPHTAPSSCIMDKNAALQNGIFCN
- MEASUREMENT_PROTOCOL: S1P3 receptor agonists, SAR follow-up, cell-based, fluorescence, synthesized compounds (AID 540349)
- CONDITION_NOTES: S1P3-expressing cells, agonist fluorescence read-out; run 2
Active and inactive are the calls of the source. No rule for the calls is given here.
Outcome field: choose from 1 (yes) (active), 0 (no) (inactive)

Here are 4 molecules together with their reported answers.
O=C(c1ccc(C2CC2)o1)N(C1CCCCC1)C1CCCCC1; 0 (no)
COc1ccc(-c2cc(C(=O)N(C3CCCCC3)C3CCCCC3)no2)cc1OC; 0 (no)
O=C(c1cc(C2CC2)on1)N(C1CCCCC1)C1CCOCC1; 1 (yes)
CC(C)Cc1cc(C(=O)N(C2CCCCC2)C2CCCCC2)no1; 1 (yes)

Call for entry CCCc1cc(C(=O)N(C2CCCCC2)C2CCCC2)no1 :
0 (no)
